system: dd strain male mice; assay: Acute Toxicity Test; format: in vivo; conditions: intraperitoneal, 14 days after administration
VALUE TYPE: Acute Toxicity (MLD), minimum lethal dose (mg/kg)
Quick reminder: number only, in mg/kg, skip the unit.

Determine from records and report Acute Toxicity (MLD), minimum lethal dose for COC(=O)c1c(C)[nH]c2c(OC(=O)N3CCN(C)CC3)cc3c(c12)C(CBr)CN3C(=O)c1cc2cc(OC)c(OC)c(OC)c2[nH]1 (centres unmarked) [Compound 16]
1.0

Please report the measured Acute Toxicity (MLD), minimum lethal dose for COC(=O)c1c(C)[nH]c2c(O)cc3c(c12)C(CCl)CN3C(=O)c1cc2cc(OC)c(OC)c(OC)c2[nH]1 (centres unmarked) [Compound 2]
1.0

Find the measured Acute Toxicity (MLD), minimum lethal dose of COC(=O)c1c(C)[nH]c2c(OC(=O)N3CCCCC3)cc3c(c12)C(CBr)CN3C(=O)c1cc2cc(OC)c(OC)c(OC)c2[nH]1 (centres unmarked) [Compound 14] and report it.
1.0

Note Acute Toxicity (MLD), minimum lethal dose for the molecule shown: COC(=O)c1c(C)[nH]c2c1C13CC1CN(C(=O)c1cc4cc(OC)c(OC)c(OC)c4[nH]1)C3=CC2=O (centres unmarked) [Compound 4]
0.5

Determine from records and report Acute Toxicity (MLD), minimum lethal dose for COC(=O)c1c(C)[nH]c2c(OC(=O)N3CCN(C)CC3)cc3c(c12)C(CBr)CN3C(=O)c1cc2cc(OC)c(OC)c(OC)c2[nH]1 (centres unmarked) [Compound 18]
0.84

Find the measured Acute Toxicity (MLD), minimum lethal dose of COC(=O)c1c(C)[nH]c2c(OC(=O)N(C)C)cc3c(c12)C(CBr)CN3C(=O)c1cc2cc(OC)c(OC)c(OC)c2[nH]1 (centres unmarked) [Compound 13] and report it.
1.0

Please give the documented Acute Toxicity (MLD), minimum lethal dose of COC(=O)c1c(C)[nH]c2c(O[Si](C)(C)C(C)(C)C)cc3c(c12)C(CBr)CN3C(=O)c1cc2cc(OC)c(OC)c(OC)c2[nH]1 (centres unmarked) [Compound 1]
1.0

Please give the documented Acute Toxicity (MLD), minimum lethal dose of COC(=O)c1c(C)[nH]c2c(OC(=O)N3CCCC3)cc3c(c12)C(CBr)CN3C(=O)c1cc2cc(OC)c(OC)c(OC)c2[nH]1 (centres unmarked) [Compound 15]
1.0
